Biological target: CRBN truncate (318-426) (Homo sapiens (Human), UniProt Q96SW2)
Sequence (Q96SW2 318-426): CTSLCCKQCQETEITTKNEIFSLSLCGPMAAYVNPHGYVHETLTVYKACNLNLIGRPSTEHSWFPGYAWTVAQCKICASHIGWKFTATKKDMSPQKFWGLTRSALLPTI
Assay: Measurement of molecular interactions using surface plasmon resonance (SPR), Biacore T200
Settings: 25° C., immobilized CRBN truncate, upper limit of measurement 200 μM
parameter-measured: Kd

- molecule: "Cn1nc(N2CC=CC(=O)NC2=O)c2ccc(Br)cc21"
  Kd: "≥ 100 µM"
- molecule: "CC(C)(C)OC(=O)c1ccc(OC2CCCC(=O)NC2=O)nc1 (stereo not drawn)"
  Kd: "≥ 100 µM"

Note to self: Kd recorded for COc1cccc2sc(N3CCC4(CCCC(=O)NC4=O)C3)nc12 (stereo not drawn) was ≥ 100 µM

The molecule CC(C)(C)OC(=O)CCCCCCCn1c(=O)n(C2CCCC(=O)NC2=O)c2ccccc21 (stereo not drawn) showed Kd equal to < 50 µM

Kd for O=Cc1ccc(N2CCC3(CCCC(=O)NC3=O)C2)nc1 (stereo not drawn) is ≥ 100 µM

Kd measured on CN1CCN(c2cnn(C3CCCC(=O)NC3=O)c(=O)c2)CC1 (stereo not drawn) = ≥ 100 µM

Note to self: Kd recorded for COc1cc([N+](=O)[O-])ccc1N1CCC2(CCCC(=O)NC2=O)C1 (stereo not drawn) was 50 to 100 µM

// sample CC(C)(C)OC(=O)c1ccc2nc(N3CC4(CC(=O)N(C5CCC(=O)NC5=O)C4=O)C3)sc2c1 (stereo not drawn) , its Kd was < 50 µM

Kd reported for this molecule COC(=O)c1ccc(CN2CCC3(CCCC(=O)NC3=O)C2)cc1 (stereo not drawn) : ≥ 100 µM
